Listed next: entries and their corresponding IC50.
Tested on: NRC-03-nhCoV
Assay: microbe, parasite or virus in culture
Format: cell-based, SARS-CoV-2
Conditions: Severe acute respiratory syndrome coronavirus 2, Vero C1008, negative log of the IC50 value against SARS-CoV-2; read-out: pIC50 (converted)
Reply with just the number (in µM).

Known IC50 results, listed for orientation:
CC(=O)Oc1ccccc1C(=O)Nc1ncc([N+](=O)[O-])s1 [Nitazoxanide] : 1.29
Cc1ccc(-c2cc(C(F)(F)F)nn2-c2ccc(S(N)(=O)=O)cc2)cc1 : 12.9
CN1C(C(=O)Nc2ccccn2)=C(O)c2ccccc2S1(=O)=O : 8.13
CC[C@H]1OC(=O)[C@H](C)[C@@H](O[C@H]2C[C@@](C)(OC)[C@@H](O)[C@H](C)O2)[C@H](C)[C@@H](O[C@@H]2O[C@H](C)C[C@H](N(C)C)[C@H]2O)[C@](C)(O)C[C@@H](C)CN(C)[C@H](C)[C@@H](O)[C@]1(C)O : 0.324
C[C@H]1c2cccc(O)c2C(=O)C2=C(O)[C@]3(O)C(=O)C(C(N)=O)=C(O)[C@@H](N(C)C)[C@@H]3[C@@H](O)[C@@H]21 : 5.13

(Q) Could you tell me which IC50 is on file for O=C(Nc1ccc([N+](=O)[O-])cc1Cl)c1cc(Cl)ccc1O [Niclosamide] ?
(A) 0.162

###

Test system: Vero-E6 cells
Conditions: read-out: CC50 (Vero-E6); half maximal cytotoxic concentration, MTT assay, Vero-E6 cells
Listed next: entries and their corresponding CC50.
Reply with just the number (in µM).

Known CC50 results, listed for orientation:
O=C(N[C@H](CO)[C@H](O)c1ccc([N+](=O)[O-])cc1)C(Cl)Cl [Chloramphenicol] : 33.9
C[C@@H]1[C@H](O)[C@@H](C)/C=C/C=C/CC/C=C/C=C/C=C/C=C/C(O[C@H]2O[C@H](C)[C@@H](O)[C@H](N)[C@@H]2O)CC2O[C@](O)(CC(O)C(O)CCC(O)CC(O)CC(O)CC(=O)O[C@H]1C)CC(O)C2C(=O)O (some centres unmarked) [Nystatin] : 183

(Q) Notebook: pull reported CC50 for Vero-E6 cells, entry CC1(C)S[C@@H]2[C@H](NC(=O)Cc3ccccc3)C(=O)N2[C@H]1C(=O)O [Benzathine penicillin]
(A) 728

(Q) Notebook: pull reported CC50 for Vero-E6 cells, entry NCC[C@H](O)C(=O)N[C@@H]1C[C@H](N)[C@@H](O[C@H]2O[C@H](CN)[C@@H](O)[C@H](O)[C@H]2O)[C@H](O)[C@H]1O[C@H]1O[C@H](CO)[C@@H](O)[C@H](N)[C@H]1O [Amikacin sulphate]
(A) 2460

(Q) Notebook: pull reported CC50 for Vero-E6 cells, entry Cc1c(N(C)CS(=O)(=O)O)c(=O)n(-c2ccccc2)n1C [Metamizole sodium]
(A) 948

###

Tested on: Vero-E6 cells
Structures can show the parent of a compound that is named as a salt.
OBSERVED_PROPERTY: CC50 (µM)
Reply with just the number (in µM).

(Q) Could you tell me which CC50 is on file for COc1ccc(C[C@@H](C)NC[C@H](O)c2ccc(O)c(NC=O)c2)cc1 [Formoterol Fumarate] ?
(A) 569
